The reader will find reported inhibition at 10 µM values listed item by item below.
- Test system: IICR (IP3 induced calcium release) in CHO cells
- ASSAY_EXPLANATION: Assay of IICR (IP3 induced calcium release)-inhibiting action
- Format: cell-based, Chinese hamster
- CONDITION_PARAMETERS: Cricetulus griseus, CHO, test compound 10 μmol; CHO cells, 10 μM ATP; read-out: IICR level (percentage of inhibition)
State the value, then name its unit.

Solved entries (count: 4):
Note down inhibition at 10 µM recorded for CN(CCC(=O)c1cnccn1)Cc1ccccc1 [Example 215]
0%

Note down inhibition at 10 µM recorded for CC(O)CNCCC(=O)c1cnccn1 (centres unmarked) [Example 281]
20%

Note down inhibition at 10 µM recorded for O=C(CCNCCCO)c1cnccn1 [Example 270]
20%

Note down inhibition at 10 µM recorded for COC(=O)C(CSSCC(NCCC(=O)c1ccco1)C(=O)OC)NCCC(=O)c1ccco1 (centres unmarked) [Example 401, N,N-bis(2-furoylethyl)cystinemethylester]
31%

Now let's try a different one.
Note down inhibition at 10 µM recorded for O=C(CCNCc1ccccc1)c1ccc(Br)s1 [Example 382]
0%

This collection of values is drawn from patent US8937091B2.
